assay: sensitizers of A549 cells to miR-34 induction, primary screen, imaging, A549 dox-inducible miR-34, nuclei and caspase counts (AID 1347080); conditions: A549 miR-34 inducible, Hoechst nuclei count, 48 h; stronger effect = lower value
observed property: fold change
// no unit string in output, number only

Below, 3 compounds whose answers are already recorded.
CCN1C[C@@]2(COC)C3[C@@H](OC)C4[C@@H]1C3([C@@H]1C[C@@]3(O)[C@H](OC(=O)c5ccccc5)[C@@H]1[C@]4(OC(C)=O)[C@@H](O)[C@@H]3OC)[C@H](OC)C[C@H]2O : 1.01
CCCN1CCc2cccc3c2[C@H]1Cc1ccc(O)c(O)c1-3 : 1.06
O=C(CCCN1CCC(n2c(=O)[nH]c3ccccc32)CC1)c1ccc(F)cc1 : 0.825

Next:
Let me know recorded fold change for CC(N)[C@H](O)c1ccc(O)c(O)c1 (some centres undefined) , thanks.
0.943

====

experiment: inhibitors of mitochondrial cytochrome c release, biochemical, purified mitochondria (AID 1603); conditions: stronger effect = lower value;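 also: mouse liver mitochondria challenged with calcium chloride; signal normalized to the plate average as 100%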
Reported cytochrome c release ratio by item:
// no unit string in output, number only

CCNC(C)Cc1cccc(C(F)(F)F)c1 (configuration not stated) : 0.91
CCCCCc1cc(O)c2c(c1)OC(C)(C)C1CC=C(C)CC21 (configuration not stated) : 1.71
C=C[C@H]1CN2CC[C@H]1C[C@@H]2[C@@H](OC(=O)OCC)c1ccnc2ccc(OC)cc12 : 1.43
C[C@H]1O[C@@H](O[C@H]2[C@@H](O)C[C@H](O[C@H]3[C@@H](O)C[C@H](O[C@H]4CC[C@]5(C)C6CC[C@]7(C)[C@@H](C8=CC(=O)OC8)CC[C@]7(O)C6CC[C@@H]5C4)O[C@@H]3C)O[C@@H]2C)C[C@H](O)[C@@H]1O (some centres not stated) : 1.31
COc1ccc2c(c1OC)C(=O)O[C@H]2[C@H]1c2cc3c(cc2CCN1C)OCO3 : 1.06
CN1C2CC(OC(=O)[C@H](CO)c3ccccc3)C[C@H]1CC2O (some centres not stated) : 0.75

Next:
Let me know recorded cytochrome c release ratio for CO[C@@H]1C[C@@H](C[C@H]2CC[C@H](C)[C@H]([C@@H](C)C(=O)O)O2)O[C@]2(O[C@](C)([C@H]3CC[C@@](C)(C4O[C@@H](C5O[C@@](O)(CO)[C@H](C)C[C@@H]5C)C[C@@H]4C)O3)C[C@H]2C)[C@@H]1C (some centres not stated) , thanks.
0.42

====

Reported luciferase signal by item:
target: Mitogen-activated protein kinase 7 (Homo sapiens); assay: ERK5 transactivation activators in reporter cells, primary screen, cell-based, HTS (AID 1508626); conditions: HeLa Gal4-ERK5 transactivation, 18 h, at 5 µM, stronger effect = higher value;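 also: luciferase driven by Gal4-ERK5 fusion binding five Gal4 sites before minimal TATA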
Calls of active or inactive are those of the source.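 How the source made its calls: active means luciferase signal above three times the same-plate solvent-only control wells; inactive means the rest.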

C/C=C(\C)C(=O)O[C@H]1C[C@@H](OC(C)=O)[C@@]2(C(=O)OC)CO[C@H]3[C@@H](O)[C@@](C)([C@]45O[C@@]4(C)[C@H]4C[C@@H]5O[C@@H]5OC=C[C@@]54O)[C@H]4[C@]1(CO[C@]4(O)C(=O)OC)[C@@H]32 : 12 AU (inactive)
C=CCC1(C(C)CCC)C(=O)N=C(S)NC1=O (stereo unspecified) : 84 AU (inactive)
COc1ccc([C@H]2Oc3c(I)c(OC)cc(OC)c3C[C@@H]2O)cc1OC : 44 AU (inactive)
C[C@@H]1CC[C@@]2(NC1)O[C@H]1C[C@H]3[C@@H]4CC=C5C[C@@H](O)CC[C@]5(C)[C@H]4CC[C@]3(C)[C@H]1[C@@H]2C : 48 AU (inactive)
C=C(C)[C@H]1Cc2c(ccc3c2O[C@@H]2COc4cc(OC)c(OC)cc4[C@@H]2C3=O)O1 : 52 AU (inactive)

Quote Mitogen-activated protein kinase 7 (Homo sapiens) luciferase signal for entry CC1(C)C2CC(=O)[C@]3(C)C(CC[C@@]4(C)[C@H](c5ccoc5)OC(=O)[C@H]5O[C@]543)[C@@]2(C)C(=O)C[C@H]1O (stereo partly specified) .
36 AU (inactive)

Quote Mitogen-activated protein kinase 7 (Homo sapiens) luciferase signal for entry CO[C@H]1C[C@H](O[C@H]2CC[C@@]3(C)[C@H](CC[C@@H]4[C@@H]3CC[C@]3(C)[C@@H](C5=CC(=O)OC5)[C@@H](OC(C)=O)C[C@]43O)C2)O[C@@H](C)[C@@H]1O .
32 AU (inactive)

Quote Mitogen-activated protein kinase 7 (Homo sapiens) luciferase signal for entry COc1cc2c(cc1O)CCNC2C (stereo unspecified) .
120 AU (inactive)

Quote Mitogen-activated protein kinase 7 (Homo sapiens) luciferase signal for entry Clc1ccc(C(OCCN2CCCCC2)c2ccccc2)cc1 (stereo unspecified) .
180 AU (active)

====

Reported activity remaining by item:
system: Aerobactin synthetase IucA (Klebsiella pneumoniae hvKP1); assay: Biochemical IucA enzyme inhibition primary screen of the Spectrum library (AID 1346200); settings: malachite green pyrophosphate, A620, at 8 µM, stronger effect = lower value;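 also: 100% = wells without compound and 0% = wells lacking enzyme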
Output spec: scalar in %, unitless text.

Below, 4 compounds whose answers are already recorded.
C=C1CCC2C(CC2(C)C)C(=C)CC/C1=N/O (stereo not given) : 105
COC(=O)C[C@H]1C2(C)CC34OC5(C)O[C@@]6([C@H](OC(C)=O)C(OC(C)=O)[C@]7(C)C(/C(=C(/O)C(C)C)C(=O)O[C@H]7c7ccoc7)[C@@]6(O5)[C@H](OC(C)=O)[C@@]3(O)C2OC(=O)C(C)C)[C@]14C (stereo not given in full) : 104
COc1ccc2c(c1)O[C@H]1c3ccc(OC)cc3OC[C@@H]21 : 122
COc1cccc2c1CCC1CC(=O)CC[C@]21C (stereo not given in full) : 119

Next:
Let me know recorded activity remaining for CC(=O)O[C@]1(C(C)=O)CCC2C3C=C(Cl)C4=CC(=O)[C@@H]5C[C@@H]5[C@]4(C)C3CC[C@@]21C (stereo not given in full) , thanks.
101

====

assay: JHH-DIPG-1 glioma cell viability, MIPE5.0 library, CellTiter-Glo luminescence, qHTS (AID 1347067); conditions: JHH-DIPG-1 glioma viability, CellTiter-Glo ATP luminescence;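 also: cells exposed to compound for 48 hours before readout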
Records with an inconclusive call do not appear. The source made the active and inactive calls. No cut-off is given here; in the data, nearly all actives have AC50 up to about 26 µM.
observed property: AC50

Below, 10 compounds whose answers are already recorded.
C[C@H]1CCC/C=C/C2C[C@H](O)C[C@H]2[C@H](O)/C=C/C(=O)O1 (stereo partly specified) : 0.235 µM (active)
C=C(C)[C@H]1Cc2c(ccc3c2O[C@@H]2COc4cc(OC)c(OC)cc4[C@@H]2C3=O)O1 : 1.48 µM (active)
O=C(Nc1ccncc1)C(=O)c1cn(Cc2ccc(Cl)cc2)c2ccccc12 : 0.417 µM (active)
CC[C@@]1(O)C(=O)OCc2c1cc1n(c2=O)Cc2cc3ccccc3nc2-1 : 1.48 µM (active)
CN1CCN(c2ccc([N+](=O)[O-])c3no[n+]([O-])c23)CC1 : 23.5 µM (active)
Cc1[nH]ncc1-c1cc2nc([C@@H]3CC4CCN3CC4)[nH]c(=O)c2s1 : 14.8 µM (active)
C#C[C@]1(O)C=C[C@H]2[C@@H]3CCC4=CC(=O)CC[C@@H]4[C@H]3CC[C@@]21CC : inactive
Cc1sc2c(c1C)C(c1ccc(Cl)cc1)=NC(CC(N)=O)c1nnc(C)n1-2 (stereo unspecified) : inactive
C[C@]12COC(=O)C[C@@H]1CC[C@@H]1[C@@H]2CC[C@@]2(C)[C@H]1CC[C@]2(C)O : inactive
CN1[C@@H]2CC(O)C[C@H]1[C@@H]1O[C@@H]12 (stereo partly specified) : inactive

Let me know recorded AC50 for CC(N[C@H]1C[C@@H]1c1ccccc1)c1ccc2c(c1)OCCO2 (stereo partly specified) , thanks.
inactive

Let me know recorded AC50 for C=C[C@H]1CN2CCC1C[C@@H]2[C@@H](O)c1ccnc2ccccc12 (stereo partly specified) , thanks.
inactive

Let me know recorded AC50 for O=c1cccc2n1CC1CNC[C@H]2C1 , thanks.
inactive

Let me know recorded AC50 for O=C(Oc1ccc([N+](=O)[O-])cc1)N1CCN(Cc2cccc(Oc3ccccc3)c2)CC1 , thanks.
inactive

====

test: HepG2 cytotoxicity, primary screen, cytotoxicity control for P. falciparum antimalarial project, cell-based, ATP luminescence (AID 2303); details: HepG2 viability, 24-48 h, at 10 µM, stronger effect = higher value;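 also: 0% = DMSO wells and 100% = digitonin-killed cells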
observed property: inhibition (%)
Output spec: scalar in %, unitless text.

O=C(/C=C/c1ccc(Cl)c(Cl)c1)NC1CCC(CN2CC[C@H](c3c[nH]c4ccccc34)[C@@H](O)C2)CC1 (some centres undefined) : 30
O=C(NC1CCC(CN2CCC(c3c[nH]c4ccccc34)CC2)CC1)NC12CC3CC(CC(C3)C1)C2 (centres undefined) : 37
O=C(/C=C/c1ccc(Cl)c(Cl)c1)NC1CCC(N2CCC(c3c[nH]c4ccccc34)CC2)CC1 (centres undefined) : 41
O=C(Nc1ccc(Oc2ccccc2)cc1)N1CCC(CN2CCC(c3c[nH]c4ccccc34)CC2)CC1 : 53
CCCCCCC(C)(C)c1cc(O)c2c(c1)OC(C)(C)c1ccncc1-2 : 4

Let me know recorded inhibition for CCC(C)CN1CCC(N(C)c2cc(NC(=O)c3ccc(F)cc3)ccn2)CC1 (centres undefined) , thanks.
4

Let me know recorded inhibition for CN(C)CCCOc1ccc(CN2CCC(c3c[nH]c4ccc(NCC5CCCCC5)cc34)CC2)cc1 , thanks.
58

Let me know recorded inhibition for CC[C@H]1CN2CC[C@H]1C[C@@H]2[C@@H](O)c1cc(Cl)nc2ccc(OC)cc12 , thanks.
-9

Let me know recorded inhibition for O=S(=O)(NC1CCC(CN2CCC(c3c[nH]c4ccccc34)CC2)CC1)c1ccc(Cl)c(Cl)c1 (centres undefined) , thanks.
36

Let me know recorded inhibition for COc1cccc(C2(NC[C@@H](O)[C@H](Cc3ccccc3)NC(=O)c3ccccc3)CCCCC2)c1 , thanks.
14
